# Tested on: P. aeruginosa strain MP-3
# Test Protocol: Broth dilution MIC determination (CLSI) against P. aeruginosa strain MP-3
# Assay type: cell-based
# Assay Conditions: Pseudomonas aeruginosa, MP3
Recorded MIC by entry

Compound	MIC
CC[C@H]1OC(=O)[C@@]2(C)CCOC(C)(C[C@@H](C)CN[C@H](C)[C@H]3NC(=O)O[C@@]31C)[C@H](O[C@@H]1O[C@H](CNCC(F)(F)F)C[C@H](N(C)C)[C@H]1O)[C@@H](C)C2=O [Compound 206]	≥ 32 µg/mL
CC[C@H]1OC(=O)C(C)C(=O)[C@H](C)[C@@H](OC2OC(CN3CC4CC4C3)CC(N(C)C)C2O)[C@](C)(OC)C[C@@H](C)CN[C@H](C)[C@H]2NC(=O)O[C@@]21C (some centres unmarked) [Compound 137]	≥ 32 µg/mL
CC[C@H]1OC(=O)[C@@](C)(F)C(=O)[C@H](C)[C@@H](O[C@@H]2OC(CNCc3ccccn3)CC(N(C)C)C2O)[C@](C)(OC)C[C@@H](C)C(=O)[C@H](C)[C@H]2NC(=O)O[C@@]21C (some centres unmarked) [Compound 100]	≥ 32 µg/mL
CC[C@H]1OC(=O)C(C)C(=O)[C@H](C)[C@@H](O[C@@H]2O[C@H]([C@@H](C)N(C)C)CC(N(C)C)[C@H]2O)[C@](C)(OC)C[C@@H](C)CN[C@H](C)[C@H]2NC(=O)O[C@@]21C (some centres unmarked) [Compound 176]	≥ 32 µg/mL

Problem: # MIC lookup, item CC[C@H]1OC(=O)C(C)C(=O)[C@H](C)[C@@H](O[C@@H]2OC(CNCc3cccc(F)c3)CC(N(C)C)C2O)[C@](C)(OC)C[C@@H](C)CN[C@H](C)[C@H]2NC(=O)O[C@@]21C (some centres unmarked) [Compound 30]
Result: ≥ 32 µg/mL
